# target of assay: hChoKβ FL (Homo sapiens, UniProt Q9Y259)
# Construct: hChoKβ full length (FL), corresponding to aminoacids 2-395; GST (N, cleaved yes); Prescission Protease recognition site (N, cleaved yes)
# Sequence (Q9Y259 2-395): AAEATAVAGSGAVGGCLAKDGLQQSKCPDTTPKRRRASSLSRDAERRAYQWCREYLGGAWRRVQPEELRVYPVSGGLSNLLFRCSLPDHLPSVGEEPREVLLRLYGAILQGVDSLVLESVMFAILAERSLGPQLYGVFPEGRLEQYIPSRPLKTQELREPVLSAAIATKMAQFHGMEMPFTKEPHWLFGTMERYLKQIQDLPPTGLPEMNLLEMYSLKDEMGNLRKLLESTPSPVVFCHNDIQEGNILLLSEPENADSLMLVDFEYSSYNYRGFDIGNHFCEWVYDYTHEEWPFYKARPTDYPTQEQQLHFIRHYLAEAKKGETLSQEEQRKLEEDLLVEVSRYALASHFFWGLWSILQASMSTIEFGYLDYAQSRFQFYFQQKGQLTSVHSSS
# assay overview: Biochemical kinase inhibition assay (Kinase-Glo Luminescent Kinase Assay) on hChoKβ FL
# details: ATP 5 μM, choline 20 μM, 60 minutes at rt; read-out: IC50 ChoKβ
measured property: pIC50
Scale explanation: pIC50 corresponds to minus log10 of a concentration expressed in moles per litre.

// query pIC50 value for entry Nc1nc(Cl)nc2c1ncn2[C@H]1CC[C@@H](C(=O)Nc2nc3ccc(OC(F)F)cc3s2)CC1
5.17

Please give the measured pIC50 for this compound: CN1CCN(Cc2ccc(NC(=O)Cc3ccc(NC(=O)[C@H]4CC[C@@H](n5cnc6c(N)nc(Cl)nc65)CC4)cc3)cc2)CC1
5.87

What measured pIC50 goes with CC(=O)Nc1ccc2nc(NC(=O)[C@H]3CC[C@@H](n4cnc5c(N)nc(Cl)nc54)CC3)sc2c1 ?
5.70

Reference for the values: patent US10683292B2
